Numbers sourced from PubChem BioAssay (NCI).

# Test system: SK-MEL-2 melanoma
# assay remarks: NCI tumour cell line growth inhibition, 48 h

query smiles: Nc1ccc(/C=C/c2ccc3ncccc3c2)cc1
TGI: > 100 µM
//
query smiles: Cc1c(Cl)cccc1C(=O)Nc1nc2c(s1)CN(C(=O)Nc1cccc(C(F)(F)F)c1)CC2
TGI: > 50 µM
//
query smiles: COc1ccc(-c2csc3c2-n2cccc2C3=O)cc1
TGI: > 79.9 µM
//
query smiles: CN1CCN(Cc2ccc(NC(=O)c3cncc(C#Cc4cnc(N)c5ncccc45)c3)cc2C(F)(F)F)CC1
TGI: 0.468 µM
//
query smiles: COC(=O)c1c(O)c(C#N)c2[nH]c3ccccc3n2c1=O
TGI: > 100 µM
